The measurements presented in this section are drawn from paper PMC4873338.

# Tested on: dopamine receptor(s) (DA-R) in s-LNv
# RUN PARAMETERS: read-out: DA EC50 ZT4; Pdf > Epac50A; rala[CA], s-LNv, LD 12:12, ZT4
METRIC: EC50 (µM)
Use µM as the unit, but write only the number.

Sample NCCc1ccc(O)c(O)c1 — what was its EC50?
5.7
